- Protocol summary: Pharmacokinetics in mice
- Type: in vivo
- Experimental parameters: po; mouse; p.o. gavage; 4 mg/kg per footnote (escalated to 100 mg/kg orally); plasma LC/MS/MS
Where a SMILES comes first, the peptide text is derived from it. [ ]: non-standard residue; d: D form. Hyp = O=C(O)[C@@H]1C[C@@H](O)CN1
Readout type: Cmax (ng/mL)
Quick reminder: number only, in ng/mL, skip the unit.

Q: Give the reported Cmax for this compound. CC(C)[C@@H]1NC(=O)[C@@H]2C[C@@H](O)CN2C(=O)[C@H]([C@@H](C)O)NC(=O)[C@H](CCCCN)NC(=O)[C@H](CCC(=O)O)NC(=O)[C@H](CC(N)=O)NC(=O)CNC(=O)[C@@H]2C[C@@H](O)CN2C(=O)[C@H](CC(N)=O)NC1=O [AFPep] (cyclo(EKT[Hyp]VN[Hyp]GN))
Result: 140

---

- Protocol summary: 8-day repeat-dose study, tolerability (blood chemistry, hematology, adverse events) in tumor-bearing dogs
- Assay type: in vivo, dog
- Experimental parameters: Dog 2; Post: 30 min after last injection on day 8; 10 mg s.c. once daily for 8 days
Where a SMILES comes first, the peptide text is derived from it. [ ]: non-standard residue; d: D form. Hyp = O=C(O)[C@@H]1C[C@@H](O)CN1
Readout type: RBC

Q: Give the reported RBC for this compound. CC(C)[C@@H]1NC(=O)[C@@H]2C[C@@H](O)CN2C(=O)[C@H]([C@@H](C)O)NC(=O)[C@H](CCCCN)NC(=O)[C@H](CCC(=O)O)NC(=O)[C@H](CC(N)=O)NC(=O)CNC(=O)[C@@H]2C[C@@H](O)CN2C(=O)[C@H](CC(N)=O)NC1=O [AFPep] (cyclo(EKT[Hyp]VN[Hyp]GN))
Result: 7 10^6/µL

---

- Protocol summary: 8-day repeat-dose study, tolerability (blood chemistry, hematology, adverse events) in tumor-bearing dogs
- Format: in vivo, dog
- Experimental parameters: Dog 5; Post: 30 min after last injection on day 8; 10 mg s.c. once daily for 8 days
Where a SMILES comes first, the peptide text is derived from it. [ ]: non-standard residue; d: D form. Hyp = O=C(O)[C@@H]1C[C@@H](O)CN1
Readout type: Phosphorous (mg/dL)
Quick reminder: number only, in mg/dL, skip the unit.

Q: Give the reported Phosphorous for this molecule. CC(C)[C@@H]1NC(=O)[C@@H]2C[C@@H](O)CN2C(=O)[C@H]([C@@H](C)O)NC(=O)[C@H](CCCCN)NC(=O)[C@H](CCC(=O)O)NC(=O)[C@H](CC(N)=O)NC(=O)CNC(=O)[C@@H]2C[C@@H](O)CN2C(=O)[C@H](CC(N)=O)NC1=O [AFPep] (cyclo(EKT[Hyp]VN[Hyp]GN))
Result: 3

---

- Protocol summary: 8-day repeat-dose study, tolerability (blood chemistry, hematology, adverse events) in tumor-bearing dogs
- Type: in vivo, dog
- Experimental parameters: Dog 3; Post: 30 min after last injection on day 8; 10 mg s.c. once daily for 8 days
Where a SMILES comes first, the peptide text is derived from it. [ ]: non-standard residue; d: D form. Hyp = O=C(O)[C@@H]1C[C@@H](O)CN1
Readout type: Platelets

Q: Give the reported Platelets for this molecule. CC(C)[C@@H]1NC(=O)[C@@H]2C[C@@H](O)CN2C(=O)[C@H]([C@@H](C)O)NC(=O)[C@H](CCCCN)NC(=O)[C@H](CCC(=O)O)NC(=O)[C@H](CC(N)=O)NC(=O)CNC(=O)[C@@H]2C[C@@H](O)CN2C(=O)[C@H](CC(N)=O)NC1=O [AFPep] (cyclo(EKT[Hyp]VN[Hyp]GN))
Result: 558 10^3/µL
